Test system: WSU-NHL
Assay: Cell proliferation assay (CTG), WSU-NHL
Format: cell-based
Details: Homo sapiens, 72 h
metric: IC50
Your reply should be a number followed by the unit it is expressed in.

Form field: reported IC50 of Cc1noc(-c2c(N)ncnc2N[C@@H](C)c2nc3cccc(C#CCO)c3c(=O)n2-c2ccccc2)n1
49 nM

----------
Target: PI3K (p110δ/p85α) (h) (Homo sapiens (Human))
Sequence (O00329 whole entry): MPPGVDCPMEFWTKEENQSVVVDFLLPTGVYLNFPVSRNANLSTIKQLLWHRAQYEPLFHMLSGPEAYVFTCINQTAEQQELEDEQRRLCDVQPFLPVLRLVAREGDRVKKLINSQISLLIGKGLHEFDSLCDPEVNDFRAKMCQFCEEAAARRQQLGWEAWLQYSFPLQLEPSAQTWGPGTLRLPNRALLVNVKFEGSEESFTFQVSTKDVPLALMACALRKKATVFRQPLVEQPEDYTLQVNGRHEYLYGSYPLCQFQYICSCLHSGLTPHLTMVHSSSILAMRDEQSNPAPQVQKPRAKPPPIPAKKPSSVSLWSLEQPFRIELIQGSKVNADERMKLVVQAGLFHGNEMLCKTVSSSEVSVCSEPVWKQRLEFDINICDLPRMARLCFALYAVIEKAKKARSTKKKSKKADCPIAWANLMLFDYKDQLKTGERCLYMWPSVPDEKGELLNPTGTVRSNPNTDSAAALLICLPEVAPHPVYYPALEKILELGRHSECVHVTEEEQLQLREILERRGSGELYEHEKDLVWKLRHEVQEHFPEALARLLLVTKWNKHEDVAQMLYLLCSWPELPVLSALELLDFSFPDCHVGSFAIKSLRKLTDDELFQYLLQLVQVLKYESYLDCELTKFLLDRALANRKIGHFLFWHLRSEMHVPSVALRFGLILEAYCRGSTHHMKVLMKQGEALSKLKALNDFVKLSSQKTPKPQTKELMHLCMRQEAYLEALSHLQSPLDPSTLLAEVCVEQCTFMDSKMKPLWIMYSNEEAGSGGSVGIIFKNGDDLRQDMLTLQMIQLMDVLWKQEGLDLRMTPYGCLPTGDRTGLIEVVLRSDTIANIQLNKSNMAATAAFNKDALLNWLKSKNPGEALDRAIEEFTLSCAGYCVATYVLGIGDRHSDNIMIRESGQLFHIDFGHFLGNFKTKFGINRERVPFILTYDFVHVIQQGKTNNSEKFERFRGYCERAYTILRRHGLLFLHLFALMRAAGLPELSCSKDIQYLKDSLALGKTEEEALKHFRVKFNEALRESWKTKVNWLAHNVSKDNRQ
Sequence (P27986 whole entry partner): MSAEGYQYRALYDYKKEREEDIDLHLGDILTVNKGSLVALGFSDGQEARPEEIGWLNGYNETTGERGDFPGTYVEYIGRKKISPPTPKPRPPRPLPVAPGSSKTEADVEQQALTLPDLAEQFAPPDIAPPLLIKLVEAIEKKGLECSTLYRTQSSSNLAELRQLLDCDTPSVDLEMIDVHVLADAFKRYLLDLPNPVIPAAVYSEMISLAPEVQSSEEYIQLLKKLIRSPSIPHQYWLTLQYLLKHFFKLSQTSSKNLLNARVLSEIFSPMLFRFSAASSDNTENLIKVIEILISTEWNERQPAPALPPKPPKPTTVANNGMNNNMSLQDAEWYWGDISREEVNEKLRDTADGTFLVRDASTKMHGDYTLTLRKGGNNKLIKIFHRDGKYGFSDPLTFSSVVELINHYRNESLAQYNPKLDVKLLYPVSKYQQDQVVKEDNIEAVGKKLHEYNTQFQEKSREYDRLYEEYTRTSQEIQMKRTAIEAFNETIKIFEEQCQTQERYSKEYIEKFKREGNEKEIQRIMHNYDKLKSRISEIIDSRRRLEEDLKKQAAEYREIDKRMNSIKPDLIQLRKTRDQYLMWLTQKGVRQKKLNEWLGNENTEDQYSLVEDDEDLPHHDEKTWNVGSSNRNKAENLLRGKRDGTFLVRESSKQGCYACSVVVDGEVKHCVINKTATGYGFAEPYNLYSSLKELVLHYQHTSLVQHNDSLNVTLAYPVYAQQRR
Test: PI3K (p110δ/p85α) (h) non-radioactive HTRF kinase assay
Method: PI3K (p110δ/p85α) (h) is incubated in assay buffer containing 10 μM phosphatidylinositol-4, 5-bisphosphate and MgATP (concentration as required). The reaction is initiated by the addition of the MgATP mix. […] The plate is then read in timeresolved fluorescence mode and the homogenous time-resolved fluorescence (HTRF) signal is determined according to the formula HTRF=10000×(Em665 nm/Em620 nm). […]
pIC50: −log10 of the molar value.
Classification field: enter 1 (yes) for pIC50 values not below 8, 0 (no) for values below it.

Previously resolved entries follow.
- CC#Cc1cccc2nc([C@H](CC)Nc3ncnc(N)c3-c3nnc(C)o3)n(-c3ccccc3)c(=O)c12 [Example 15]: 0 (no)
- Cc1noc(-c2c(N)ncnc2N[C@@H](C)c2cc3cccc(C#CCO)c3c(=O)n2-c2ccccc2)n1 [Example 40]: 1 (yes)

Does the reported pIC50 for CC[C@H](Nc1ncnc(N)c1-c1nc(C)no1)c1nc2cccc(C#CCO)c2c(=O)n1C1CC1 [Example 29] fall at or above the 8 mark?
0 (no)

Does the reported pIC50 for Cc1noc(-c2c(N)ncnc2N[C@@H](C)c2nc3cccc(C#CCO)c3c(=O)n2-c2ccccc2)n1 [Example 34] fall at or above the 8 mark?
1 (yes)

Does the reported pIC50 for CC[C@H](Nc1ncnc(N)c1-c1nnc(C)o1)c1nc2cccc(C#CCO)c2c(=O)n1-c1ccccc1 [Example 37] fall at or above the 8 mark?
0 (no)

Does the reported pIC50 for CC#Cc1cccc2nc([C@H](C)Nc3ncnc(N)c3-c3nc(C)no3)n(-c3ccccc3)c(=O)c12 [Example 9] fall at or above the 8 mark?
1 (yes)

----------
Assay: Compound stability in human liver microsomes
Type: in vitro ADME
Conditions: liver microsomes, pH 7.4; in vivo CLint extrapolated from human liver microsome incubation
Classification field: enter Y for CLint scaled at 5 μM values not below 100 mL/min/kg, N for values below it.

Previously resolved entries follow.
* Cc1nc(-c2c(N)ncnc2N[C@@H](C)c2nc3cccc(C#CC(C)(C)O)c3c(=O)n2-c2ccccc2)no1 [Example 3] | N
* C#Cc1cccc2nc([C@H](C)Nc3ncnc(N)c3-c3nnc(C)o3)n(-c3ccccc3)c(=O)c12 [Example 45] | Y
* C#Cc1cccc2nc([C@H](C)Nc3ncnc(N)c3-c3noc(C)n3)n(-c3ccccc3)c(=O)c12 [Example 47] | Y
* Cc1nnc(-c2c(N)ncnc2N[C@@H](C)c2nc3cccc(C#CC(C)(C)O)c3c(=O)n2-c2ccccc2)o1 [Example 2] | N
* C#Cc1cccc2nc([C@H](C)Nc3ncnc(N)c3-c3ncn(C)n3)n(C3CC3)c(=O)c12 [Example 53] | N

Does the reported CLint scaled at 5 μM for CC(O)C#Cc1cccc2nc([C@H](C)Nc3ncnc(N)c3-c3nnn(C)n3)n(-c3ccccc3)c(=O)c12 (some centres unmarked) [Example 8] fall at or above the 100 mL/min/kg mark?
N
